List of EC50 values.
- Test system: Interferon-α
- Assay Comment: Induction of Interferon-α using cryopreserved human PBMCs
- Format: cell-based
- Measurement Conditions: PBMC, 24 h incubation, normalized to 1 uM resiquimod, read-out: mean pEC50 for induction of Interferon-α (converted)
Experimental Readout: EC50

Compound	Measured
CCCCOc1nc(N)c2[nH]c(=O)n(CCCCCN3CCCCC3)c2n1 [Example 10]	< 3.16 µM
CC[C@H](C)Oc1nc(N)c2[nH]c(=O)n(CCCCN3CCCCC3)c2n1 [Example 24]	< 3.16 µM
CCCCOc1nc(N)c2[nH]c(=O)n(CCCN3CCCC3)c2n1 [Example 2]	< 3.16 µM
CCCCOc1nc(N)c2[nH]c(=O)n(CCCCCN3CCC3)c2n1 [Example 8]	< 3.16 µM
CCCCOc1nc(N)c2[nH]c(=O)n(CCCCN3CCC3)c2n1 [Example 4]	< 3.16 µM
CC[C@H](C)Oc1nc(N)c2[nH]c(=O)n(CCCCCN3CCCCC3)c2n1 [Example 33]	< 3.16 µM
CCCCNc1nc(N)c2[nH]c(=O)n(CCCN3CCCCC3)c2n1 [Example 16]	< 3.16 µM
CCCCNc1nc(N)c2[nH]c(=O)n(CCCCN3CCCCC3)c2n1 [Example 17]	< 3.16 µM
Nc1nc(OC2CCC2)nc2c1[nH]c(=O)n2CCCCN1CCCCC1 [Example 27]	< 3.16 µM

====

Recorded EC50 by entry
- Test system: Interferon-α
- Assay Comment: Induction of Interferon-α using cryopreserved human PBMCs
- Type: cell-based
- Measurement Conditions: PBMC, 24 h incubation, normalized to 1 uM resiquimod, read-out: mean pEC50 for induction of Interferon-α (converted)

Smiles Input	EC50
CCC[C@H](C)Nc1nc(N)c2[nH]c(=O)n(CCCCN3CCCCC3)c2n1	< 3.16 µM
CCCCOc1nc(N)c2[nH]c(=O)n(CCCCCN3CCCCCC3)c2n1	< 3.16 µM
CCCCOc1nc(N)c2[nH]c(=O)n(CCCCCN3CCCC3)c2n1	< 3.16 µM
CCCC[C@H](C)Oc1nc(N)c2[nH]c(=O)n(CCCCN3CCCCC3)c2n1	< 3.16 µM
CCCCOc1nc(N)c2[nH]c(=O)n(CCCN3CCC3)c2n1	< 3.16 µM
CCCCOc1nc(N)c2[nH]c(=O)n(CCCCCN3CCCCCCC3)c2n1	< 3.16 µM
CC(C)Oc1nc(N)c2[nH]c(=O)n(CCCCCN3CCCCC3)c2n1	< 3.16 µM
Nc1nc(OC2CCCCC2)nc2c1[nH]c(=O)n2CCCCN1CCCCC1	< 3.16 µM
CCCCOc1nc(N)c2[nH]c(=O)n(CCCN3CCCCCC3)c2n1	< 3.16 µM

Where these numbers come from: patent US10117873B2
